Every entry's value here was drawn from PubChem BioAssay AID1159583.

growth inhibition: recorded values
Procedure Text: hypoxia reporter signal reduction in M. tuberculosis – fluorescence, absorbance growth readout, primary screen (AID 1159583)
Assay Context: M. tuberculosis hypoxia-regulated fluorescent reporter, stronger effect = higher value, concentration not given here; measured here: M. tuberculosis growth (absorbance)
Hit rate of the full screen: of about 300,000 compounds, about 310 (0.1%) were called active. What follows is part of a selection rich in actives, with near analogues and random picks from the rest.
State the result as a value with its unit after it.

The cases that follow already have their growth inhibition on record.
Chem Smiles	Assay Endpoint	Experimental Result
CCOC(=O)C(=Cc1ccc(C)cc1)NC(=O)c1ccccc1	growth inhibition	2.94%
CCc1ccc(/C=C2\SC(N3CCOCC3)=NC2=O)cc1	growth inhibition	6.4%
N#CC(=Cc1ccc(O)c(O)c1)C(=O)c1ccc(O)c(O)c1	growth inhibition	-7.09%

Now, please, on to the next compound.
Request the reported growth inhibition associated with `Cc1cc(C(=O)NN=Cc2ccc3ccccc3c2)n[nH]1` -3.88%
